# SYSTEM_UNDER_TEST: human GPR119 (Homo sapiens)
# Construct: expressed in transfected cells; host or cells: HEK293 (transient transfection, Lipofectamine 2000)
# Sequence (Q8TDV5 whole entry): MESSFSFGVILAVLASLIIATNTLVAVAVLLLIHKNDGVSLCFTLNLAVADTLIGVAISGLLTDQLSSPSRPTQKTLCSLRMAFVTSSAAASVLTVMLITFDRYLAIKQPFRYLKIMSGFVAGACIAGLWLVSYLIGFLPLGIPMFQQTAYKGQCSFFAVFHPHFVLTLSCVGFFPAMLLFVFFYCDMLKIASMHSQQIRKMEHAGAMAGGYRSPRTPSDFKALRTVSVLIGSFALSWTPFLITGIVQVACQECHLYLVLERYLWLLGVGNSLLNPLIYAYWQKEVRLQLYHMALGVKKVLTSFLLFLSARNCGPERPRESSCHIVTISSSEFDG
# TEST_METHOD_NOTES: In vitro cyclic AMP assay (Cisbio HTRF) in HEK293 cells transfected with human GPR119
# Assay type: cell-based
# MEASUREMENT_CONDITIONS: 1 h, % Induction @ 10 μM, cAMP, Table I
# activation at 10 µM listing for each entry below
All answers are understood in %, so give the number only.

// solved cases for activation at 10 µM follow
1. O=C(OC1CCC1)N1CCC(c2nc3cc(-c4ccc(-n5cnnn5)cc4F)ccc3o2)CC1 [EXAMPLE-23]
69.6
2. CC(C)CC(=O)N1CCC(c2nc3cc(-c4ccc(-n5cnnn5)cc4F)ccc3o2)CC1 [EXAMPLE-40]
21.9
3. CC(C)C(=O)N1CCC(c2nc3cc(-c4ccc(C(N)=O)c(F)c4)ccc3o2)CC1 [EXAMPLE-43]
48.8

In the following, a different compound is considered.
Data request: # lookup: activation at 10 µM of CCc1cnc(N2CCC(c3nc4cc(-c5ccc(S(C)(=O)=O)cc5F)ccc4o3)CC2)nc1 [EXAMPLE-3]
Data returned: 35.4

Origin of measurements: patent US9181214B2
